Molecular target: T1, IL-10R2-Fc/His (UniProt Q08334 20-220, limits assumed)
T1 sequence (looked up): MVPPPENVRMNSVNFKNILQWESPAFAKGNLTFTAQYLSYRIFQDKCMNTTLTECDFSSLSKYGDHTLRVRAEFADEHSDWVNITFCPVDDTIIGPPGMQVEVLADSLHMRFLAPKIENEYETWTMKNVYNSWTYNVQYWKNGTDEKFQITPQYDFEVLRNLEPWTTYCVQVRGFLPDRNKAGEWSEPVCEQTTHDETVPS
Test: ELISA, IL-10R2-Fc/His coated
Endpoint: Decreased fold of binding to ligand after Conjugating with S48 (fold)
One number for each entry, in fold.

Use these answered entries as a reference point.
{"Binder": "IL-10 Thr100Cys-S48 (ligand, human, UniProt P22301 19-178, looked up, S48 on Cys 100, mature) SPGQGTQSENSCTHFPGNLPNMLRDLRDAFSRVKTFFQMKDQLDNLLLKESLLEDFKGYLGCQALSEMIQFYLEEVMPQAENQDPDIKAHVNSLGENLKCLRLRLRRCHRFLPCENKSKAVEQVKNAFNKLQEKGIYKAMSEFDIFINYIEAYMTMKIRN", "Unit Abbrev": "fold", "Measurement": 8}
{"Binder": "IL-10 Leu101Cys-S48 (ligand, human, UniProt P22301 19-178, looked up, S48 on Cys 101, mature) SPGQGTQSENSCTHFPGNLPNMLRDLRDAFSRVKTFFQMKDQLDNLLLKESLLEDFKGYLGCQALSEMIQFYLEEVMPQAENQDPDIKAHVNSLGENLKTCRLRLRRCHRFLPCENKSKAVEQVKNAFNKLQEKGIYKAMSEFDIFINYIEAYMTMKIRN", "Unit Abbrev": "fold", "Measurement": 3}
{"Binder": "IL-10 Asn21Cys-S48 (ligand, human, UniProt P22301 19-178, looked up, S48 on Cys 21, mature) SPGQGTQSENSCTHFPGNLPCMLRDLRDAFSRVKTFFQMKDQLDNLLLKESLLEDFKGYLGCQALSEMIQFYLEEVMPQAENQDPDIKAHVNSLGENLKTLRLRLRRCHRFLPCENKSKAVEQVKNAFNKLQEKGIYKAMSEFDIFINYIEAYMTMKIRN", "Unit Abbrev": "fold", "Measurement": 6}
{"Binder": "IL-10 Glu81Cys-S48 (ligand, human, UniProt P22301 19-178, looked up, S48 on Cys 81, mature) SPGQGTQSENSCTHFPGNLPNMLRDLRDAFSRVKTFFQMKDQLDNLLLKESLLEDFKGYLGCQALSEMIQFYLEEVMPQACNQDPDIKAHVNSLGENLKTLRLRLRRCHRFLPCENKSKAVEQVKNAFNKLQEKGIYKAMSEFDIFINYIEAYMTMKIRN", "Unit Abbrev": "fold", "Measurement": 3}

# per-item lookup of Decreased fold of binding to ligand after Conjugating with S48; items listed below
1. IL-10 Gln123Cys-S48 (ligand, human, UniProt P22301 19-178, looked up, S48 on Cys 123, mature) SPGQGTQSENSCTHFPGNLPNMLRDLRDAFSRVKTFFQMKDQLDNLLLKESLLEDFKGYLGCQALSEMIQFYLEEVMPQAENQDPDIKAHVNSLGENLKTLRLRLRRCHRFLPCENKSKAVECVKNAFNKLQEKGIYKAMSEFDIFINYIEAYMTMKIRN
2. IL-10 Asp86Cys-S48 (ligand, human, UniProt P22301 19-178, looked up, S48 on Cys 86, mature) SPGQGTQSENSCTHFPGNLPNMLRDLRDAFSRVKTFFQMKDQLDNLLLKESLLEDFKGYLGCQALSEMIQFYLEEVMPQAENQDPCIKAHVNSLGENLKTLRLRLRRCHRFLPCENKSKAVEQVKNAFNKLQEKGIYKAMSEFDIFINYIEAYMTMKIRN

Reply |
3
3

binder IL-10 Arg24Cys-S48 (ligand, human, UniProt P22301 19-178, looked up, S48 on Cys 24, mature) SPGQGTQSENSCTHFPGNLPNMLCDLRDAFSRVKTFFQMKDQLDNLLLKESLLEDFKGYLGCQALSEMIQFYLEEVMPQAENQDPDIKAHVNSLGENLKTLRLRLRRCHRFLPCENKSKAVEQVKNAFNKLQEKGIYKAMSEFDIFINYIEAYMTMKIRN , Decreased fold of binding to ligand after Conjugating with S48 observed: 9
